- Test system: Fibroblast
- Protocol notes: Multiplex assay against human fibroblast
- Format: toxicity, cell-based
- Measurement conditions: 48 h, 1 µM, compound concentration 1 uM, replicate 2
Population Membrane Permeable-Phenotype (%) below 20% gives 0; Population Membrane Permeable-Phenotype (%) at or above it gives 1.

Quick check, Population Membrane Permeable-Phenotype (%) >= 20%? O=C(Nc1ccc(-c2ccnc(Nc3ccc(N4CCOCC4)cc3)n2)cc1)[C@@H]1CCCN1 0

Is Population Membrane Permeable-Phenotype (%) at least 20%? Consider O=C(Cc1ccc(-c2ccc(OCCN3CCOCC3)cc2)cn1)NCc1ccccc1 [TIRBANIBULIN] 0

Determine whether this compound has Population Membrane Permeable-Phenotype (%) no lower than 20%: O=C1NC(=O)C(c2cnc3ccccn23)=C1c1cn2c3c(cc(F)cc13)CN(C(=O)N1CCCCC1)CC2 [LY-2090314] 1

Say whether CN1C2CCC1CC(OC(c1ccc(F)cc1)c1ccc(F)cc1)C2.Cl (centres undefined) shows Population Membrane Permeable-Phenotype (%) of 20% or more. 0

Determine whether this compound has Population Membrane Permeable-Phenotype (%) no lower than 20%: S=C(NCCCc1c[nH]cn1)NCCCN(Cc1ccc(Cl)c(Cl)c1)c1ccc(Br)cn1 1

Is Population Membrane Permeable-Phenotype (%) at least 20%? Consider CN1CCC(=C2c3ccccc3CC(=O)c3sccc32)CC1.O=C(O)/C=C/C(=O)O [KETOTIFEN FUMARATE] 0

Threshold query (Population Membrane Permeable-Phenotype (%) >= 20%) on C=C1/C(=C\C=C2/CCC[C@]3(C)[C@@H]([C@H](C)/C=C/[C@H](C)C(C)C)CC[C@@H]23)C[C@@H](O)C[C@@H]1O [DOXERCALCIFEROL] 0

Could you tell me if the measured Population Membrane Permeable-Phenotype (%) of Cc1cn(-c2cc(NC(=O)c3ccc(C)c(Nc4nccc(-c5cccnc5)n4)c3)cc(C(F)(F)F)c2)cn1 [NILOTINIB] reaches 20% or more? 0

Could you tell me if the measured Population Membrane Permeable-Phenotype (%) of CCCS(=O)(=O)c1nc(NC2CC2)cc(-c2ccc3c(ccn3C3CC(C)(C)NC(C)(C)C3)c2)n1 reaches 20% or more? 1

* * *

- Test system: Fibroblast
- Protocol notes: Multiplex assay against human fibroblast
- Type: toxicity, cell-based
- Measurement conditions: 12 h, 10 µM, compound concentration 10 uM, replicate 2
Measured metric: Population Mitochondria Different-Phenotype (%)
Reply numerically in %, unit not repeated.

Recorded Population Mitochondria Different-Phenotype (%) for COc1cc2ncnc(Nc3ccc(F)c(Cl)c3)c2cc1NC(=O)/C=C/CN1CCCCC1 [DACOMITINIB ANHYDROUS] with Fibroblast, please? 16

Kindly state the measured Population Mitochondria Different-Phenotype (%) obtained for Cl.O=c1c2cccn2c2ccccc2n1CCCN1CCC(c2ccc(Cl)cc2)CC1 with Fibroblast. 98

Form: Entry = CCN1CCN(Cc2ccc(Nc3ncc(F)c(-c4cc(F)c5nc(C)n(C(C)C)c5c4)n3)nc2)CC1.CS(=O)(=O)O | System = Fibroblast | Population Mitochondria Different-Phenotype (%) = ____ 94

What Population Mitochondria Different-Phenotype (%) appears in the records for this molecule with Fibroblast? CCCS(=O)(=O)c1nc(NC2CC2)cc(-c2ccc3c(ccn3C3CC(C)(C)NC(C)(C)C3)c2)n1 38
